target: T1, human CD33 on primary human dendritic cells (human, UniProt P20138 18-364); assay: flow cytometry on primary human dendritic cells, antibody dilutions, fluorescent anti-human IgG secondary
T1 construct: Endogenous CD33 of monocyte-derived dendritic cells from healthy donors; also called Siglec-3
T1 sequence (P20138 18-364): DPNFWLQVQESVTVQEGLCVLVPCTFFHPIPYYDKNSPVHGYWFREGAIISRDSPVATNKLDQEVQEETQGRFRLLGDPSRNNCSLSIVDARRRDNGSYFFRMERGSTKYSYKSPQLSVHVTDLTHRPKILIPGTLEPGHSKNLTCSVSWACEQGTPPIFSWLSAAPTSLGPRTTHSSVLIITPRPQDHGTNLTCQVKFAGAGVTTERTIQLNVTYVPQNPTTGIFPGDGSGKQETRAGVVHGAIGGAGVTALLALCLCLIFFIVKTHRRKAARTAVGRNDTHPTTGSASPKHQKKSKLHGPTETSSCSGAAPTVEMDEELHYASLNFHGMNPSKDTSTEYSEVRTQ
measurement-label: binding result

binder="anti-CD33 antibody 6C7H4 (antibody, V domains shown, Humanized 6C7; VH/VL only) VH: EVQLVESGGGLVQPGGSLRLSCAGSGFTFSNYCMNWVRQAPGKGLEWVAEIRLKSNNYVTNYAASVKGRFTISRDDSKNSLYLQMNSLKTEDTAVYYCTRDGYYVPFAYWGQGTLVTVSS VL: QLVLTQSPSASASLGASVKLTCTLSSQHSTYTIEWYQQQPEKGPRYLMELKKDGSHSTGDGIPDRFSGSSSGAERYLTISSLQSEDEADYYCGVGDTIKEQFVYVFGGGTKLTVL" value_reported=binds
binder="anti-CD33 antibody 6C7H7 (antibody, V domains shown, Humanized 6C7; VH/VL only) VH: EVQLVESGGGLVQPGGSLRLSCAGSGFTFSNYCMNWVRQAPGKGLEWVAEIRLKSNNYVTNYAASVKGRFTISRDDSKNSLYLQMNSLKTEDTAVYYCTRDGYYVPFAYWGQGTLVTVSS VL: QLVLTQSPSASASLGASAKLTCTLSSQHSTYTIEWYQQQPEKGPRYVMELKKDGSHSTGDGIPDRFSGSSSGAERYLTISSIQSEDEADYICGVGDTIKEQFVYVFGGGTKVTVL" value_reported=binds
binder="anti-CD33 antibody 6C7H6 (antibody, V domains shown, Humanized 6C7; VH/VL only) VH: EVQLVESGGGLVQPGGSLRLSCAASGFTFSNYCMNWVRQAPGKGLEWVGEIRLKSNNYVTNYAASVKGRFTISRDDSKNSLYLQMNSLKTEDTAVYYCARDGYYVPFAYWGQGTLVTVSS VL: QLVLTQSPSASASLGASAKLTCTLSSQHSTYTIEWYQQQPEKGPRYVMELKKDGSHSTGDGIPDRFSGSSSGAERYLTISSIQSEDEADYICGVGDTIKEQFVYVFGGGTKVTVL" value_reported=binds
